- Test method notes: Half life in rat at 3 mg/kg, po
- Assay type: ADME, organism-based
- Recorded conditions: in vivo
Metric name: half-life (h)
Quick reminder: number only, in h, skip the unit.

half-life in this record for COc1cc(F)ccc1-c1c(CN(C)Cc2ccccc2)[nH]c2c(NS(C)(=O)=O)cc(C(C)C)cc12 : 3.31

* * *

- Test method notes: Half life in rat at 1 mg/kg, iv
- Format: ADME, organism-based
- Recorded conditions: in vivo
Metric name: half-life (h)
Quick reminder: number only, in h, skip the unit.

half-life in this record for COc1cc(F)ccc1-c1c(CN(C)Cc2ccccc2)[nH]c2c(NS(C)(=O)=O)cc(C(C)C)cc12 : 3.96

* * *

- Target entity: Glucocorticoid receptor (Rattus norvegicus)
- Sequence (P06536 whole entry): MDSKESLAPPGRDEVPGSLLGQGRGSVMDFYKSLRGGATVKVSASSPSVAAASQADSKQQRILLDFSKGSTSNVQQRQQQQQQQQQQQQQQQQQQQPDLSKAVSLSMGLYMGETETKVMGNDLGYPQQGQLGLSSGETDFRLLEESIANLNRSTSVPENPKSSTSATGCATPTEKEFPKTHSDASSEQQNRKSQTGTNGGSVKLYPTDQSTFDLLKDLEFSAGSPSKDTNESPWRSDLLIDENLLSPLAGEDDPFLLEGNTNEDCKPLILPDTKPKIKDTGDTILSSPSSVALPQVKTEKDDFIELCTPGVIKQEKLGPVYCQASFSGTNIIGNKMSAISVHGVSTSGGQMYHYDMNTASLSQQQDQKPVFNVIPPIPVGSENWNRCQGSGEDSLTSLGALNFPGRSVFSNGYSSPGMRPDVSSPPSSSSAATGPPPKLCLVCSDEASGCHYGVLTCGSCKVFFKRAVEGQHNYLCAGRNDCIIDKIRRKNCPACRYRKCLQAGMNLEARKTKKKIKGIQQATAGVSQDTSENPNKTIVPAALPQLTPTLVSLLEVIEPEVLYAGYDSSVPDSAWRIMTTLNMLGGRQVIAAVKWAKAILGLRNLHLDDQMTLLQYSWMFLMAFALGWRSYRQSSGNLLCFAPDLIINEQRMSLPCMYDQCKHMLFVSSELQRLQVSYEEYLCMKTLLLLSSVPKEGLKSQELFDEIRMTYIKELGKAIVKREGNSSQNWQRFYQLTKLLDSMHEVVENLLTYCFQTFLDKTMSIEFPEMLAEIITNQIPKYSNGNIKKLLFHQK
- Test method notes: Antagonist activity against glucocorticoid receptor in rat H4-IIE cells assessed as inhibition of dexamethasone-induced receptor transactivation pre-incubated for 1 hr before dexamethasone addition and measured 24 hrs post dexamethasone stimulation by tyrosine aminotransferase enzyme assay
Metric name: pIC50
Note on pIC50: it is the negative log10 of concentration, concentration in mol/L.

Worked examples, 5 compounds total:
pIC50 in this record for COc1cc(F)ccc1-c1c(CN(C)Cc2ccccc2)[nH]c2c(NS(C)(=O)=O)cc(C(C)C)cc12 : 7.97

pIC50 in this record for CS(=O)(=O)Nc1cccc2c(-c3cccc(Cl)c3)c[nH]c12 : 7.12

pIC50 in this record for COc1cc(F)ccc1-c1c(Cc2ccccc2)[nH]c2c(NS(C)(=O)=O)cc(C(C)C)cc12 : 6.53

pIC50 in this record for COc1ccccc1-c1c[nH]c2c(NS(C)(=O)=O)cccc12 : 5.93

pIC50 in this record for COc1cc(F)ccc1-c1c(C)[nH]c2c(NS(C)(=O)=O)cc(F)cc12 : 7.20

Continuing:
pIC50 in this record for COc1ccc(Cl)cc1-c1c[nH]c2c(NS(C)(=O)=O)cccc12 : 5.90

pIC50 in this record for COc1cc(F)ccc1-c1c(CN(C)Cc2ccccc2)[nH]c2c(NS(C)(=O)=O)cc(C(C)(C)C)cc12 : 7.84

* * *

Observed Ki for Progesterone receptor (Homo sapiens), reported per entry below.
Quick reminder: number only, in nM, skip the unit.

Worked examples, 5 molecules total:
Ki in this record for COc1cc(F)ccc1-c1c(C)[nH]c2c(NS(C)(=O)=O)cc(F)cc12 : 20.5

Ki in this record for COc1ccc(Cl)cc1-c1c[nH]c2c(NS(C)(=O)=O)cccc12 : 233

Ki in this record for COc1cc(F)ccc1-c1c(CN(C)Cc2ccccc2)[nH]c2c(N)cc(F)cc12 : 4190

Ki in this record for COc1cc(F)ccc1-c1c(CN(C)Cc2ccccc2)[nH]c2c(NS(C)(=O)=O)cc(C(C)(C)C)cc12 : 253

Ki in this record for CS(=O)(=O)Nc1cccc2cc[nH]c12 : 104

Lab note: next molecule to report on.
Ki in this record for CS(=O)(=O)Nc1cccc2c(-c3ccc(F)cc3)c[nH]c12 : 29

* * *

- Target entity: Estrogen receptor (Homo sapiens) (UniProt P03372)
- Sequence (whole entry): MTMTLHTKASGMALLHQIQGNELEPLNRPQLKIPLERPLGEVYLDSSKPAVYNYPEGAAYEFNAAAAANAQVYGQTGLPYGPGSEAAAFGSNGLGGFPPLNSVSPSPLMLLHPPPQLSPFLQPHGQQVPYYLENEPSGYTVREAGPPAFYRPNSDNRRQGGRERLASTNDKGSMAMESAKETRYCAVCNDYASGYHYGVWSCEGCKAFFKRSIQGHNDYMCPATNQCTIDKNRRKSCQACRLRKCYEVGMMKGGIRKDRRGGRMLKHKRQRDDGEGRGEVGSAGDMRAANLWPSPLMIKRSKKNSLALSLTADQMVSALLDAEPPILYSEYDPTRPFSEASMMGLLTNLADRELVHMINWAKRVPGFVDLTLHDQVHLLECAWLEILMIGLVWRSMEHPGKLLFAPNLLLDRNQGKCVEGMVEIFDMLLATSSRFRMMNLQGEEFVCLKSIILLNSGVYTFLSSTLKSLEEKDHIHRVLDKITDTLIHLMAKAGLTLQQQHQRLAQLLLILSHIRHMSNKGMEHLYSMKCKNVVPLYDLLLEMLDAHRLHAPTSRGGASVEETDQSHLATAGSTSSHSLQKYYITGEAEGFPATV
- Test method notes: Binding affinity to human estrogen receptor expressed in HEK293 cells by scintillation counting based radioligand competition binding assay
- Assay type: cell-based
The source made the active and inactive calls. The rule behind the calls is not given here.
Metric name: Activity

Worked examples, 5 molecules total:
Activity in this record for COc1ccc(F)cc1-c1c(-c2ccccc2)[nH]c2c(NS(C)(=O)=O)cccc12 : inactive

Activity in this record for COc1cc(F)ccc1-c1c(CN(C)Cc2ccccc2)[nH]c2c([N+](=O)[O-])cc(C(C)C)cc12 : inactive

Activity in this record for COc1cc(NS(C)(=O)=O)c2[nH]c(C)c(-c3ccccc3)c2c1 : inactive

Activity in this record for COc1ccc(Cl)cc1-c1c[nH]c2c(NS(C)(=O)=O)cccc12 : inactive

Activity in this record for COc1cc(NS(C)(=O)=O)c2[nH]c(C)c(-c3cc(F)ccc3OC)c2c1 : inactive

Continuing:
Activity in this record for COc1cc(F)ccc1-c1c(CN(C)Cc2ccccc2)[nH]c2c(N)cc(F)cc12 : inactive

Activity in this record for COc1cc(F)ccc1-c1c(CN(C)Cc2ccccc2)[nH]c2c(NS(C)(=O)=O)cc(C(C)(C)C)cc12 : inactive

Activity in this record for COc1cc(F)ccc1-c1c(Cc2ccccc2)[nH]c2c(NS(C)(=O)=O)cc(C(C)C)cc12 : inactive

Activity in this record for COc1ccc(-c2c[nH]c3c(NS(C)(=O)=O)cccc23)cc1F : inactive

* * *

- Target entity: UniProt:P04150
- Sequence (P04150 whole entry): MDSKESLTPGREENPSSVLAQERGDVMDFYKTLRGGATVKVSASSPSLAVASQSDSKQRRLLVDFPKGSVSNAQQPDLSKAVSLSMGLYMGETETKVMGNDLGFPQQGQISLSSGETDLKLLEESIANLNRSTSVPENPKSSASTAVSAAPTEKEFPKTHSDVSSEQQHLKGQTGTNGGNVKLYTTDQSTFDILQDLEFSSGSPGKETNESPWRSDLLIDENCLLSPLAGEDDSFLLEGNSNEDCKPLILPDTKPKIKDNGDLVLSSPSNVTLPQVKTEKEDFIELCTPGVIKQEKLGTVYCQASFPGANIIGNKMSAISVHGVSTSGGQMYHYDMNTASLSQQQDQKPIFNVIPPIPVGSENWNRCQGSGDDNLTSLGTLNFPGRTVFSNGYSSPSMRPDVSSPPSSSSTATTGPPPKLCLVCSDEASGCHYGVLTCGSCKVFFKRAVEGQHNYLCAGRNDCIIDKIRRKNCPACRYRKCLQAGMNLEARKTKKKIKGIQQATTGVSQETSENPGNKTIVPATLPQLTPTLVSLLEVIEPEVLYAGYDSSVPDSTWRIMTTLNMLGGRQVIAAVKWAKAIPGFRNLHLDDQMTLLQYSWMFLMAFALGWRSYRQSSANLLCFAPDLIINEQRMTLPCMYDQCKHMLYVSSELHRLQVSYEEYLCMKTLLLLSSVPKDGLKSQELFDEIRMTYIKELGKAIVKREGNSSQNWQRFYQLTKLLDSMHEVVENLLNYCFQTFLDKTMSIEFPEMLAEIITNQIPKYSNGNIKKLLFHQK
- Test method notes: Antagonist activity against glucocorticoid receptor (unknown origin) expressed in HEK293 cells by GRE-dependent luciferase reporter gene assay
Reported IC50 values for a set of molecules
Quick reminder: number only, in µM, skip the unit.

IC50 in this record for COc1cc(F)ccc1-c1c(CN(C)Cc2ccccc2)[nH]c2c(NS(C)(=O)=O)cc(C(C)C)cc12 : 0.00276

IC50 in this record for COc1cc(F)ccc1-c1c(C)[nH]c2c(NS(C)(=O)=O)cc(F)cc12 : 0.022

IC50 in this record for COc1ccc(Cl)cc1-c1c[nH]c2c(NS(C)(=O)=O)cccc12 : 0.143

IC50 in this record for CS(=O)(=O)Nc1cccc2c(-c3cccc(Cl)c3)c[nH]c12 : 0.18

IC50 in this record for COc1cc(F)ccc1-c1c(Cc2ccccc2)[nH]c2c(NS(C)(=O)=O)cc(C(C)C)cc12 : 0.00754

Lab note: next molecule to report on.
IC50 in this record for COc1ccccc1-c1c[nH]c2c(NS(C)(=O)=O)cccc12 : 0.235

* * *

- Test method notes: AUC in rat at 3 mg/kg, po
- Type: ADME, organism-based
- Recorded conditions: in vivo
Metric name: AUC (ng·h/mL)
Quick reminder: number only, in ng·h/mL, skip the unit.

AUC in this record for COc1cc(F)ccc1-c1c(CN(C)Cc2ccccc2)[nH]c2c(NS(C)(=O)=O)cc(C(C)C)cc12 : 488
